meta.source: PubChem BioAssay AID330

List of T/C values.
# System: P388 leukemia ip, CD2F1 mice, survival T/C
# Assay Details: NCI In Vivo Anticancer Drug Screen. Data for tumor model P388 Leukemia (intraperitoneal) in CD2F1 (CDF1) mice
# Condition Context: endpoint: median survival time; dose: 25.0 mg/kg/injection; schedule: Q01DX005 (ip); vehicle: saline; higher = longer survival
Inconclusive results and toxic doses are left out.
Metric: T/C

INSERT INTO measurements (compound, test_system, metric, recorded_value) VALUES
  ('C[C@@H]1CC(=O)C[C@H]2CCCCN21', 'P388 leukemia ip, CD2F1 mice, survival T/C', 'T/C', '103 % of control'),
  ('C[C@H](N)[C@H](O)c1cccc(O)c1', 'P388 leukemia ip, CD2F1 mice, survival T/C', 'T/C', '100 % of control'),
  ('CCOP(=O)(NCCCOC)OCC', 'P388 leukemia ip, CD2F1 mice, survival T/C', 'T/C', '97 % of control'),
  ('COc1c(C)n(C)n(-c2ccccc2)c1=O', 'P388 leukemia ip, CD2F1 mice, survival T/C', 'T/C', '108 % of control'),
  ('COc1cc2c(cc1OC)C(CCCCCCCC1NCCc3cc(OC)c(OC)cc31)NCC2 (stereo unspecified)', 'P388 leukemia ip, CD2F1 mice, survival T/C', 'T/C', '96 % of control'),
  ('COc1ccc2c(c1)C(CCN(C)C)(CCN(C)C)C(=O)CC2', 'P388 leukemia ip, CD2F1 mice, survival T/C', 'T/C', '95 % of control');

* * *

List of T/C values.
# System: P388 leukemia ip, CD2F1 mice, survival T/C
# Assay Details: NCI In Vivo Anticancer Drug Screen. Data for tumor model P388 Leukemia (intraperitoneal) in CD2F1 (CDF1) mice
# Condition Context: endpoint: median survival time; dose: 400.0 mg/kg/injection; schedule: Q04DX003 (ip); vehicle: Klucel (hydroxypropylcellulose) (HPC); higher = longer survival
Toxic doses and inconclusive results are not listed.
Metric: T/C

INSERT INTO results (compound, recorded_value) VALUES
  ('COc1ccccc1N1C(=S)N(c2cccc(Cl)c2Cl)C(=O)C(N=Nc2cccc(Cl)c2Cl)C1O (configuration not stated)', '98 % of control'),
  ('FC(F)(F)C1(C(F)(F)F)OS2(OC1(C(F)(F)F)C(F)(F)F)OC(C(F)(F)F)(C(F)(F)F)C(C(F)(F)F)(C(F)(F)F)O2', '105 % of control'),
  ('O=C1CC(O)(c2ccccc2)CCS1 (configuration not stated)', '106 % of control'),
  ('COC(=O)C1=C(C(=O)OC)C2(C)C=CC1C1C(OC(C)=O)C(OC(C)=O)C12 (configuration not stated)', '107 % of control'),
  ('O=C1OCCOCCOCCOCCOCCOC(=O)c2cccc1n2', '101 % of control'),
  ('C=C(C)/C(=C/C(=O)OCC)Sc1ccccc1', '102 % of control'),
  ('Cn1c(-c2ccc(Cl)cc2)cc2cc(CN3C(=O)c4ccccc4C3=O)ccc21', '87 % of control');

* * *

# System: P388 leukemia ip, CD2F1 mice, survival T/C
# Assay Details: NCI In Vivo Anticancer Drug Screen. Data for tumor model P388 Leukemia (intraperitoneal) in CD2F1 (CDF1) mice
# Condition Context: endpoint: median survival time; dose: 6.25 mg/kg/injection; schedule: Q01DX009 (ip); vehicle: Klucel (hydroxypropylcellulose) (HPC); higher = longer survival
Inconclusive results and toxic doses are left out.
List of T/C values.
Metric: T/C

INSERT INTO measurements (mol_smiles, test_system, metric, recorded_value) VALUES
  ('CCN1CCC(=C(c2ccccc2)c2ccccc2)C1', 'P388 leukemia ip, CD2F1 mice, survival T/C', 'T/C', '102 % of control'),
  ('COc1cc(C2=N/C(=C/c3cccc(O)c3O)C(=O)O2)cc(OC)c1OC', 'P388 leukemia ip, CD2F1 mice, survival T/C', 'T/C', '101 % of control'),
  ('CCSC(=S)Nc1nc2ccc(C)cc2s1', 'P388 leukemia ip, CD2F1 mice, survival T/C', 'T/C', '107 % of control'),
  ('CN(C)c1ccc(/C=C/c2ccnc3ccccc23)cc1N', 'P388 leukemia ip, CD2F1 mice, survival T/C', 'T/C', '98 % of control');
